Measured values drawn from patent US20230263822A1 for this set.

- System: blood coagulation
- assayNotes: PT and aPTT assay in cynomolgus monkeys (Example 45)
- Assay type: in vivo
- conditionContext: day 36; escalating dose regimen; platelet poor plasma
- Procedure: Groups, each consisting of two male and three female monkeys, were injected subcutaneously with ISIS 416838, ISIS 416850, ISIS 416858, ISIS 416864, or ISIS 417002 in escalating doses. […] Body weights were measured weekly. […] Blood samples were collected in tubes containing sodium citrate. PT and aPTT were determined in duplicate with an ACL 9000 coagulation instrument (Instrumentation Laboratory, Italy). […]
Below, each entry is listed alongside its reported PT ratio (INR).
Enter a number only.

Some entries whose results are on file:
substance | observed
ISIS 416858: MOE gapmer, nucleobases 1275 to 1318 of SEQ ID NO: 1 (Table 8) (antisense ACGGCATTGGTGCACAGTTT; MOE gapmer, wing and gap sizes not given here) | 1.07
ISIS 416838: MOE gapmer, nucleobases 1018 to 1042 of SEQ ID NO: 1 (Table 6) (antisense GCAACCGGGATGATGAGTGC; MOE gapmer, wing and gap sizes not given here) | 1.05
ISIS 417002: MOE gapmer, nucleobases 1275 to 1318 of SEQ ID NO: 1 (Table 8) (antisense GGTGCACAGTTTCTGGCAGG; MOE gapmer, wing and gap sizes not given here) | 1.05
ISIS 416864: MOE gapmer, nucleobases 1275 to 1318 of SEQ ID NO: 1 (Table 8) (antisense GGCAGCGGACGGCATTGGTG; MOE gapmer, wing and gap sizes not given here) | 1.06

Turning now to a further record.
// query What value of PT ratio (INR) has been recorded for this entry: ISIS 416850: MOE gapmer, nucleobases 1275 to 1318 of SEQ ID NO: 1 (Table 8) (antisense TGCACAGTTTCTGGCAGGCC; MOE gapmer, wing and gap sizes not given here)
// result 1.02
